// provenance: ChEMBL document CHEMBL1138974

For each entry below, report its pEC50 value.
Tested System: Sodium- and chloride-dependent glycine transporter 1 (Homo sapiens)
Sequence (P48067 whole entry): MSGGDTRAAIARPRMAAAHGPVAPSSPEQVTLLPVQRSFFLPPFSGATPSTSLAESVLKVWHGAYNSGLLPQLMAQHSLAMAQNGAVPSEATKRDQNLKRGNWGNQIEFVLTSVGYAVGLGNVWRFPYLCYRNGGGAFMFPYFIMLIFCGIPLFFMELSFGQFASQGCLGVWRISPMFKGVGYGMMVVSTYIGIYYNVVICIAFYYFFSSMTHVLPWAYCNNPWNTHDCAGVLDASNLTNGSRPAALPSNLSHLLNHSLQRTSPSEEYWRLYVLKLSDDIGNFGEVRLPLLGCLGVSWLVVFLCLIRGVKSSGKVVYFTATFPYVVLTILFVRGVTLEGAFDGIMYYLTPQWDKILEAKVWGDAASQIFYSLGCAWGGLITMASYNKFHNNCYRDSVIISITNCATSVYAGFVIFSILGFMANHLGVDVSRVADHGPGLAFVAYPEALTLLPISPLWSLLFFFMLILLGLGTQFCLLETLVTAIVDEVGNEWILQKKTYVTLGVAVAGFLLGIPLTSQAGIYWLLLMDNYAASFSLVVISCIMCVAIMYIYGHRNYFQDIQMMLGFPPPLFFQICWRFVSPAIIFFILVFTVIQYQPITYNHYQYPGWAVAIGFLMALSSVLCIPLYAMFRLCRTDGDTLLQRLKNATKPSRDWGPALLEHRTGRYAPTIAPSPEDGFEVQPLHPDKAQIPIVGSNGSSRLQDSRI
Experiment Description: Inhibition of [3H]glycine uptake at human GlyT1 by radiometric assay
Answers are plain numbers, as −log10 of the molar value.

| Compound | pEC50 |
| --- | --- |
| Cc1cccc(C2(O)CCCCC2N2CCC3(CC2)C(=O)NCC3c2ccc(F)cc2)c1 (single isomer, unassigned; diastereomer 1) | 5.58 |
| COc1cccc(C2(O)CCCCC2N2CCC3(CC2)C(=O)NCC3c2ccc(F)cc2)c1 (stereo in doubt) | 6.80 |
| O=C1NCN(c2ccccc2)C12CCN(C1CCCCC1(O)c1ccc(F)cc1)CC2 (stereo not given) | 7.62 |
| N#Cc1ccc(C2(O)CCCCC2N2CCC3(CC2)C(=O)NCC3c2ccc(F)cc2)cc1 (single isomer, unassigned; diastereomer 2) | 4.95 |
| COc1ccc(C2(O)CCCCC2N2CCC3(CC2)C(=O)NCC3c2ccccc2)cc1 (stereo not given) | 5.35 |

Take each entry in turn and give its pEC50.
1. O=C1NC[C@@H](c2ccccc2)C12CCN(C1CCCCC1c1ccccc1)CC2 (stereo in doubt; 3)
2. COc1ccc(C2(O)CCCCC2N2CCC3(CC2)C(=O)NCC3c2ccc(F)cc2)cc1 (stereo in doubt)

RESULT:
[6.63, 6.80]

Answer for every listed entry: what is its pEC50? The entries follow.
1. O=C1NCC(c2ccccc2)C12CCN(C1CCCCC1(O)c1ccc(F)cc1)CC2 (single isomer, unassigned; diastereomer 2)
2. COc1cccc(C2(O)CCCCC2N2CCC3(CC2)C(=O)NCC3c2ccc(F)cc2)c1 (single isomer, unassigned; diastereomer 4)
3. O=C1NCC(c2ccc(F)cc2)C12CCN(C1CCCCC1(O)c1ccccc1F)CC2 (single isomer, unassigned; diastereomer 4)
4. CS(=O)(=O)c1ccc(C2(O)CCCCC2N2CCC3(CC2)C(=O)NCC3c2ccc(F)cc2)cc1 (stereo not given)
5. O=C1NCC(c2ccc(F)cc2)C12CCN(C1CCCCC1(O)c1ccccc1F)CC2 (single isomer, unassigned; diastereomer 2)
6. O=C1NCC(c2ccccc2)C12CCN(C1CCCCC1(O)c1ccc(F)cc1)CC2 (single isomer, unassigned; diastereomer 1)

RESULT:
1. 6.08
2. 5.28
3. 7.16
4. 4.73
5. 6.96
6. 7.15

For the 2 compounds below, give their pEC50 values.
1. O=C1NCC(c2ccccc2)C12CCN(C1CCCCC1(O)c1cccc(F)c1)CC2 (single isomer, unassigned; diastereomer 1)
2. O=C1NCC(c2ccc(F)cc2)C12CCN(C1CCCCC1(O)c1cccc(Cl)c1)CC2 (stereo in doubt; form 2)

RESULT:
1. 6.80
2. 7.14
